test system: nude mice, LX-1 lung xenograft intrarenal, tumor weight T/C; assay: NCI In Vivo Anticancer Drug Screen. Data for tumor model Human Lung LX-1 Xenograft (intrarenal inoculation) in NU/NU Swiss (nude) mice; settings: endpoint: mean tumor weight change; dose: 37.5 mg/kg/injection; schedule: Q04DX003 (sc); vehicle: water; higher = larger tumour
Results filed as inconclusive are left out.
measurement label: T/C

Sample answers from the record:
[[record]]
compound = "COc1cccc2c1C(=O)c1c(O)c3c(c(O)c1C2=O)C[C@@](O)(/C(C)=N/NC(=O)c1ccccc1)C[C@@H]3OC1CC(N)C(O)C(C)O1 (stereo not given in full)"
study_target = "nude mice, LX-1 lung xenograft intrarenal, tumor weight T/C"
measurement_label = "T/C"
endpoint_value = "36 % of control"

[[record]]
compound = "CCN(Cc1ccc(Cl)c(Cl)c1)c1ccc2nc(N)nc(N)c2c1C"
study_target = "nude mice, LX-1 lung xenograft intrarenal, tumor weight T/C"
measurement_label = "T/C"
endpoint_value = "62 % of control"

[[record]]
compound = "Nc1n[n+](-c2ccccc2)no1"
study_target = "nude mice, LX-1 lung xenograft intrarenal, tumor weight T/C"
measurement_label = "T/C"
endpoint_value = "87 % of control"

[[record]]
compound = "COc1cccc2c1C(=O)c1c(O)c3c(c(O)c1C2=O)CC(O)(C(=O)CO)CC3OC1CC(N)C(O)C(C)O1 (stereo not given)"
study_target = "nude mice, LX-1 lung xenograft intrarenal, tumor weight T/C"
measurement_label = "T/C"
endpoint_value = "82 % of control"


Prompt: Could you share which T/C value was measured for "CNc1n[n+](-c2ccccc2)no1" ?
Response: 98 % of control

* * *

tested on: nude mice, LX-1 lung xenograft intrarenal, tumor weight T/C; experiment: NCI In Vivo Anticancer Drug Screen. Data for tumor model Human Lung LX-1 Xenograft (intrarenal inoculation) in NU/NU Swiss (nude) mice; settings: endpoint: mean tumor weight change; dose: 6.25 mg/kg/injection; schedule: Q04DX003 (sc); vehicle: Klucel (hydroxypropylcellulose) (HPC); higher = larger tumour
Results filed as inconclusive are left out.
measurement label: T/C

Sample answers from the record:
[[record]]
molecule = "O=NN(CCF)C(=O)NC1CCCCC1"
measurement_label = "T/C"
endpoint_value = "66 % of control"

[[record]]
molecule = "C=C1C(C)C2C(Cc3ccccc3)NC(=O)C23C(OC(C)=O)/C=C/C(C)(O)CC(C)C/C=C/C3C1O (centres undefined)"
measurement_label = "T/C"
endpoint_value = "112 % of control"

[[record]]
molecule = "N#C[Se-].c1ccc([Te+](c2ccccc2)c2ccccc2)cc1"
measurement_label = "T/C"
endpoint_value = "75 % of control"


API: the following record is the query input.
Prompt: Could you share which T/C value was measured for CC(=O)OCC1OC([S-])C(OC(C)=O)C(OC(C)=O)C1OC(C)=O.CC[PH+](CC)CC.CC[PH+](CC)CC.[Au].[Au] (centres undefined) ?
Response: 88 % of control

* * *

Some compounds, each annotated with its measured T/C.
test system: nude mice, LX-1 lung xenograft intrarenal, tumor weight T/C; assay: NCI In Vivo Anticancer Drug Screen. Data for tumor model Human Lung LX-1 Xenograft (intrarenal inoculation) in NU/NU Swiss (nude) mice; details: endpoint: mean tumor weight change; dose: 25.0 mg/kg/injection; schedule: Q01DX010 (sc); vehicle: saline; higher = larger tumour
Records with an inconclusive call do not appear.

Sample answers from the record:
[[record]]
compound = "CC1(C)OC(=O)N(CO)C1=O"
endpoint_value = "51 % of control"

[[record]]
compound = "Nc1ncnc2c1ncn2C1OC(CO)C(O)C1O (configuration not stated)"
endpoint_value = "156 % of control"

[[record]]
compound = "C1OC1C1CO1 (configuration not stated)"
endpoint_value = "80 % of control"

[[record]]
compound = "C[N+](C)(C)c1ncnc2c1ncn2C1CCCO1 (configuration not stated)"
endpoint_value = "120 % of control"


Prompt: Could you share which T/C value was measured for "CN(C)C(=O)c1cccc(COc2ccc(N3C(N)=NC(N)=NC3(C)C)cc2Cl)c1" ?
Response: 25 % of control

Prompt: Could you share which T/C value was measured for COc1cc(C)c2c(c1C=O)Oc1c(c(C)c(O)c3c1C(O)OC3=O)OC2=O (configuration not stated) ?
Response: 103 % of control

Prompt: Could you share which T/C value was measured for "C=CC(=O)NCNC(=O)C=C" ?
Response: 88 % of control

* * *

Tested on: nude mice, LX-1 lung xenograft intrarenal, tumor weight T/C
Assay: NCI In Vivo Anticancer Drug Screen. Data for tumor model Human Lung LX-1 Xenograft (intrarenal inoculation) in NU/NU Swiss (nude) mice
Settings: endpoint: mean tumor weight change; dose: 37.5 mg/kg/injection; schedule: Q04DX003 (sc); vehicle: Klucel (hydroxypropylcellulose) (HPC); higher = larger tumour
Experimental: The antitumor activity of compounds was measured in mice bearing transplantable tumors. Survival or tumor size were measured and the results are expressed as the measurement made in the treated group (T) divided by the measurement made in the vehicle treated control group (C). The tumor model used in this assay is Human Lung LX-1 Xenograft (intrarenal inoculation) in NU/NU Swiss (nude) mice
Inconclusive results are not listed.
Some molecules, each annotated with its measured T/C.

Prompt: Could you share which T/C value was measured for "COc1cc2cc[n+](C)c(Cc3ccccc3)c2cc1OC" ?
Response: 88 % of control

Prompt: Could you share which T/C value was measured for O=C1C2(Cl)C3(Cl)C4(Cl)C(Cl)(Cl)C5(Cl)[C@]3(Cl)C1(Cl)[C@]5(Cl)C24Cl (stereo partly specified) ?
Response: 118 % of control

Prompt: Could you share which T/C value was measured for CC(C)(C)c1ccc(CN2CCN(C(c3ccccc3)c3ccc(Cl)cc3)CC2)cc1 (stereo unspecified) ?
Response: 79 % of control

Prompt: Could you share which T/C value was measured for "CCC[CH2][Hg][Cl]" ?
Response: 53 % of control

Prompt: Could you share which T/C value was measured for "O=C(C#Cc1ccccc1)c1ccccc1" ?
Response: 96 % of control

Prompt: Could you share which T/C value was measured for Nc1ncnc2c1nnn2C1OC(CO)C(O)C1O (stereo unspecified) ?
Response: 96 % of control

Prompt: Could you share which T/C value was measured for "C=C1C(=O)C23[C@H](O)C1CC[C@H]2[C@]12COC3(O)[C@@H](O)[C@@H]1C(C)(C)CC[C@@H]2O" ?
Response: 49 % of control

Prompt: Could you share which T/C value was measured for "C=CS(C=C)=NS(=O)(=O)c1ccc(C)cc1" ?
Response: 163 % of control

Prompt: Could you share which T/C value was measured for "COc1ccc(C(N)=O)cc1N=NN(C)C" ?
Response: 23 % of control

Prompt: Could you share which T/C value was measured for "CN(C)c1ccc2c(N(C)C)cc(N(C)C)nc2c1" ?
Response: 96 % of control

Prompt: Could you share which T/C value was measured for "O=C1C=CC(=O)N1c1ccc(Cl)cc1" ?
Response: 116 % of control

* * *

system: nude mice, LX-1 lung xenograft intrarenal, tumor weight T/C; test: NCI In Vivo Anticancer Drug Screen. Data for tumor model Human Lung LX-1 Xenograft (intrarenal inoculation) in NU/NU Swiss (nude) mice; details: endpoint: mean tumor weight change; dose: 2400.0 mg/kg/injection; schedule: Q04DX003 (sc); vehicle: Klucel (hydroxypropylcellulose) (HPC); higher = larger tumour
Records with an inconclusive call do not appear.
Some compounds, each annotated with its measured T/C.

Prompt: Could you share which T/C value was measured for "C[C@]12C=CC(=O)C=C1CC[C@@H]1[C@@H]2C(=O)C[C@@]2(C)[C@H]1CC[C@]2(O)C(=O)CO" ?
Response: 35 % of control

Prompt: Could you share which T/C value was measured for Cc1ccc(C2NC(=O)c3ccccc3N2)s1 (stereo not given) ?
Response: 82 % of control

Prompt: Could you share which T/C value was measured for "COC(=O)Nc1nc2ccc(SC)cc2c(=O)[nH]1" ?
Response: 92 % of control

Prompt: Could you share which T/C value was measured for O=C(O)c1cc(Cc2ccc(O)c(C(=O)O)c2)ccc1O (tested in a mixture with another compound) ?
Response: 68 % of control

Prompt: Could you share which T/C value was measured for S=C(Nc1ccc(Cl)c(Cl)c1)N1c2ccccc2-n2cccc2C1c1cccnc1 (stereo not given) ?
Response: 65 % of control

Prompt: Could you share which T/C value was measured for "COc1cc(OC)c(OC)cc1/C=C\c1ccnc2ccccc12" ?
Response: 81 % of control

* * *

tested on: nude mice, LX-1 lung xenograft intrarenal, tumor weight T/C; assay: NCI In Vivo Anticancer Drug Screen. Data for tumor model Human Lung LX-1 Xenograft (intrarenal inoculation) in NU/NU Swiss (nude) mice; settings: endpoint: mean tumor weight change; dose: 5.0 mg/kg/injection; schedule: Q04DX003 (sc); vehicle: Klucel (hydroxypropylcellulose) (HPC); higher = larger tumour
Inconclusive results are not listed. Numbered stars: 1 amine (or outer) side, 2 acyl side, 3 side chain; on linkers, the order of the positions; unused ones are H or OH. Square brackets hold non-standard residues; d marks the D form. Peptide text beside a SMILES is read from it. * marks the point of attachment. X2 = CCC(=O)CC1CC(C)CC(C(=O)[*:2])N1[*:1]; X1 = CCCCCCCCC(C)C(=O)*; Aib = CC(C)(N)C(=O)O; X3 = CC(CN(C)CCO)N*
measurement label: T/C

[[record]]
molecule = "CCCCCCCCC(C)C(=O)N1CCCC1C(=O)N1C(CC(=O)CC)CC(C)CC1C(=O)NC(C)C(=O)NC(C)(C)C(=O)NC(C)(C)C(=O)NC(C(=O)NC(C)C(=O)NC(C)(C)C(=O)NC(C)(C)C(=O)NC(C)CN(C)CCO)C(C)CC (centres undefined) (X1-P[X2]A[Aib][Aib]IA[Aib][Aib]-X3; configuration not given here)"
measurement_label = "T/C"
endpoint_value = "270 % of control"

[[record]]
molecule = "NC(Cc1ccc(N(CCCl)CCCl)cc1)C(=O)O (centres undefined)"
measurement_label = "T/C"
endpoint_value = "105 % of control"

[[record]]
molecule = "N/C(=N\\O)c1cn(C2OC(CO)C(O)C2O)c2ncnc(N)c12 (centres undefined)"
measurement_label = "T/C"
endpoint_value = "99 % of control"


API: the following record is the query input.
Prompt: Could you share which T/C value was measured for COC1C(C)OC(OC2CC(C)(O)Cc3cc4c(c(O)c32)C(=O)c2c(O)cc3c(c2C4=O)OC2OC3(C)C(O)C(N(C)C)C2O)C(OC)C1(C)OC (centres undefined) ?
Response: 118 % of control
